Data export: IC50 values recorded with Fungal ACC2 (UniProt Q00955).
Sequence (Q00955 whole entry): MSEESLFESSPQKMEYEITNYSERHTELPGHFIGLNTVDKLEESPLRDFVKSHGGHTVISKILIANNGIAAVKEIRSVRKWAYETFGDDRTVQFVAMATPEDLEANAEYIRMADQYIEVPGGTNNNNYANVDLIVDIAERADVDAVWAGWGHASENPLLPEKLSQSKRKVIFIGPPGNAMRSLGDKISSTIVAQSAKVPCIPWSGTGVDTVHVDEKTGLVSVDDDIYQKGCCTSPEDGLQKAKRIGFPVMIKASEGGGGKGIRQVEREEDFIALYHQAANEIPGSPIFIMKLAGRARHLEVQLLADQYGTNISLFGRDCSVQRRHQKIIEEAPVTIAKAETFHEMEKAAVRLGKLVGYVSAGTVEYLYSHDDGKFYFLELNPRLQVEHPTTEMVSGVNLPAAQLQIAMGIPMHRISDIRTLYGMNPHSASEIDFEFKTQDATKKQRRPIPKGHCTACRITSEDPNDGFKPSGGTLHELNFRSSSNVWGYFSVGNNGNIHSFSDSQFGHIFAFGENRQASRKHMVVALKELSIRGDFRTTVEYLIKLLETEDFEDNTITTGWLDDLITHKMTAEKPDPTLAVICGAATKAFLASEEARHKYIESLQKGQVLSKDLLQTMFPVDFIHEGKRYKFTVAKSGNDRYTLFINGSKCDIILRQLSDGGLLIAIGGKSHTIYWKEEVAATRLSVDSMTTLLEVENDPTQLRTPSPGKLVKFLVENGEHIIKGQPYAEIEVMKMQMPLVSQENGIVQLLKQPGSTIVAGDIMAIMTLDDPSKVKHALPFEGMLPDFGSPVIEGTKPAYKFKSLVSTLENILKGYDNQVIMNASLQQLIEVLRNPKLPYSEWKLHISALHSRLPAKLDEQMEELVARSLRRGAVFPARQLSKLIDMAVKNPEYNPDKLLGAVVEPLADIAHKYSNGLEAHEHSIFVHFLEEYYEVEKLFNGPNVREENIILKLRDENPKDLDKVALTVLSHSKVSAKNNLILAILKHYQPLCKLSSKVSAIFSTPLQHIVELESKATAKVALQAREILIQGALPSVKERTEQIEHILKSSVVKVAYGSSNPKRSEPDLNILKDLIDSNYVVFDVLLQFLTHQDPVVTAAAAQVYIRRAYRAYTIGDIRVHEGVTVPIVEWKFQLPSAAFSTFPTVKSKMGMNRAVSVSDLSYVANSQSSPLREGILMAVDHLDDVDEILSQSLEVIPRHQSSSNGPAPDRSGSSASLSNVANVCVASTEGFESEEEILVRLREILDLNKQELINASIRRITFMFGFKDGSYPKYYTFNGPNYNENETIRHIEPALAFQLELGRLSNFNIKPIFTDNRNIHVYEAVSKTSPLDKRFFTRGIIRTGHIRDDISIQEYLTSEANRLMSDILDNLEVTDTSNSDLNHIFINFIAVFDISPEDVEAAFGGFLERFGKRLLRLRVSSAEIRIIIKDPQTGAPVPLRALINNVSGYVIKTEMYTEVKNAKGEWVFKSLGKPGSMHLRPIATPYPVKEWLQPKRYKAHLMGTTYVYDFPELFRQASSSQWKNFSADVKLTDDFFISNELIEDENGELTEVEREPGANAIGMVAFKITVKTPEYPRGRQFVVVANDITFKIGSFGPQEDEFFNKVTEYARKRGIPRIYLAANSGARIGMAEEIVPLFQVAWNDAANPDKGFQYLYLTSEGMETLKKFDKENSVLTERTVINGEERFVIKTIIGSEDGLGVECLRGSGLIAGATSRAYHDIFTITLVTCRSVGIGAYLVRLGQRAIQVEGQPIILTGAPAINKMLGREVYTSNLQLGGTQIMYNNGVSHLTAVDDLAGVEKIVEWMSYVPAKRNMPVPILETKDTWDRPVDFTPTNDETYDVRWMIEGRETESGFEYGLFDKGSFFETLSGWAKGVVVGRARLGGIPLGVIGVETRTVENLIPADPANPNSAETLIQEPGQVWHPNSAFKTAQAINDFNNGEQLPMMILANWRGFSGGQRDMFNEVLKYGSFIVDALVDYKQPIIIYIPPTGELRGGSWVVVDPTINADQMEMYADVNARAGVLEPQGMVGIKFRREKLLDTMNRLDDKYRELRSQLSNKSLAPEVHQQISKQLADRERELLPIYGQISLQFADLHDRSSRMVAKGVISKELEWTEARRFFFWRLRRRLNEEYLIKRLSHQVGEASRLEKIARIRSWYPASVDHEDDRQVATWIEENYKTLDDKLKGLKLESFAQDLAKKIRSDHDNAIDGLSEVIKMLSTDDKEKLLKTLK

// IC50 lookup, key: "COCCO[C@@H](Cn1c(=O)n([C@@]2(C)CCCNC2=O)c(=O)c2c(C)c(-n3nccn3)sc21)c1cc(F)ccc1OC"
2 to 10 nM

// IC50 lookup, key: COCCO[C@@H](Cn1c(=O)n(C2CCNC2=O)c(=O)c2c(C)c(-n3nccn3)sc21)c1cc(F)ccc1OC (stereo partly drawn)
0.7 to 2 nM

----------
Overview of recorded MIC for various molecules
Test system: C. parapsilosis ATCC 22019
Test: Anti-Fungal Activity Assay (broth microtiter MIC), C. parapsilosis
Type: cell-based, Candida parapsilosis
Details: Lodderomyces parapsilosis, ATCC22019, 48 h, 3 replicates; MIC recorded at 48 h; read-out: MIC C. parapsilosis ATCC 22019

These solved cases illustrate the format of a correct answer.
{"Molecule": "COc1ccc(F)cc1[C@H](Cn1c(=O)n([C@@H]2CCCN(C)C2=O)c(=O)c2c(C)c(-n3nccn3)sc21)OCCC#N", "MIC": "2.1 to 4 µg/mL"}
{"Molecule": "COc1ccc(F)cc1[C@H](Cn1c(=O)n([C@@H]2CCN(C)C2=O)c(=O)c2c(C)c(-n3nccn3)sc21)O[C@H]1CC[C@@H](O)CC1", "MIC": "0.25 to 1 µg/mL"}
{"Molecule": "Cc1c(-n2nccn2)sc2c1c(=O)n([C@@H]1CCN(C)C1=O)c(=O)n2C[C@H](O[C@H]1CC[C@@H](O)CC1)c1cc(F)ccc1O", "MIC": "2.1 to 4 µg/mL"}
{"Molecule": "COc1ccc(F)cc1[C@H](Cn1c(=O)n([C@@H]2CCNC2=O)c(=O)c2c(C)c(-n3nccn3)sc21)O[C@H]1C[C@@H](O)C1", "MIC": "2.1 to 4 µg/mL"}
{"Molecule": "COCCO[C@@H](Cn1c(=O)n([C@@H]2CCN(C)C2=O)c(=O)c2c(C)c(-n3nccn3)sc21)c1cc(F)ccc1O", "MIC": "2.1 to 4 µg/mL"}

// MIC lookup, key: "COCCO[C@@H](Cn1c(=O)n([C@@]2(C)CCC(=O)NC2)c(=O)c2c(C)c(-n3nccn3)sc21)c1cc(F)ccc1OC"
2.1 to 4 µg/mL

// MIC lookup, key: CCN1CCCC(n2c(=O)c3c(C)c(-n4nccn4)sc3n(C[C@H](OC3CCOCC3)c3cc(F)ccc3OC)c2=O)C1=O (stereo partly shown)
0.25 to 1 µg/mL

// MIC lookup, key: COc1ccc(F)cc1[C@H](Cn1c(=O)n(C2CCCN(C)C2=O)c(=O)c2c(C)c(-n3nccn3)sc21)OC1CCOCC1 (stereo partly shown)
0.25 to 1 µg/mL

// MIC lookup, key: COc1ccc(F)cc1[C@H](Cn1c(=O)n(C2CCNC2=O)c(=O)c2c(C)c(-n3nccn3)sc21)OCCO (stereo partly shown)
2.1 to 4 µg/mL

// MIC lookup, key: "COc1ccc(F)cc1[C@H](Cn1c(=O)n([C@H]2CC(=O)N(C)C2)c(=O)c2c(C)c(-n3nccn3)sc21)OCCO"
2.1 to 4 µg/mL

// MIC lookup, key: "COCCO[C@@H](COc1nc2sc(-n3nccn3)c(C)c2c(=O)n1[C@@H]1CCN(C(=O)C(C)C)C1)c1cc(F)ccc1OC"
2.1 to 4 µg/mL

// MIC lookup, key: "COc1ccc(F)cc1[C@H](Cn1c(=O)n([C@@H]2CCN(C)C2=O)c(=O)c2c(C)c(-n3cccn3)sc21)OCCC(=O)O"
2.1 to 4 µg/mL

// MIC lookup, key: COc1ccccc1[C@H](Cn1c(=O)n(C2CCNC2=O)c(=O)c2c(C)c(-c3ncco3)sc21)OCCO (stereo partly shown)
2.1 to 4 µg/mL

----------
Data export: IC50 values recorded with Fungal ACC2 (UniProt Q00955).

{"Compound": "COc1ccc(F)cc1[C@H](Cn1c(=O)n([C@@H]2CCNC2=O)c(=O)c2c(C)c(-n3nccn3)sc21)OCCO [Compound I-81]", "IC50": "0.7 to 2 nM"}

// IC50 lookup, key: COc1ccc(F)cc1[C@@H](O)Cn1c(=O)n([C@H]2CCN(C)C2=O)c(=O)c2c(C)c(-n3nccn3)sc21 [Compound I-164]
0.7 to 2 nM

// IC50 lookup, key: COCCO[C@@H](Cn1c(=O)n([C@H]2CCN(C(C)C)C2=O)c(=O)c2c(C)c(-n3nccn3)sc21)c1cc(F)ccc1OC [Compound I-104]
0.7 to 2 nM

// IC50 lookup, key: COCCO[C@@H](Cn1c(=O)n([C@@H]2CCCN(C)C2=O)c(=O)c2c(C)c(-n3nccn3)sc21)c1cc(F)ccc1OC [Compound I-32]
0.7 to 2 nM

// IC50 lookup, key: COc1ccccc1[C@H](Cn1c(=O)n([C@H]2CCN(C)C2=O)c(=O)c2c(C)c(-n3nccn3)sc21)OC [Compound I-171]
2 to 10 nM

// IC50 lookup, key: COc1ccc(F)cc1[C@H](Cn1c(=O)n([C@H]2CCNC2=O)c(=O)c2c(C)c(-c3ncco3)sc21)O[C@H]1CC[C@@H](O)CC1 [Compound I-192]
0.7 to 2 nM

----------
Target: Fungal ACC2 (UniProt Q00955)
pIC50: −log10 of the molar value.
Value type: pIC50

These solved cases illustrate the format of a correct answer.
{"Molecule": "COCCO[C@@H](Cn1c(=O)n([C@@H]2CCN(C)C2=O)c(=O)c2c(C)c(-n3nccn3)sc21)c1cc(F)ccc1OC [Compound I-28]", "System under test": "Fungal ACC2 (UniProt Q00955)", "Result": "8.00 to 8.70"}
{"Molecule": "COc1ccc(F)cc1[C@H](Cn1c(=O)n([C@H]2CCCNC2=O)c(=O)c2c(C)c(-n3nccn3)sc21)OCCO [Compound I-70]", "System under test": "Fungal ACC2 (UniProt Q00955)", "Result": "8.70 to 9.15"}

Switching to the query record.
Return pIC50 measured with Fungal ACC2 (UniProt Q00955) given this molecule: COc1ccc(F)cc1[C@H](Cn1c(=O)n([C@@H]2CCN(C)C2=O)c(=O)c2c(C)c(-c3ncco3)sc21)O[C@H]1CC[C@@H](O)CC1 [Compound I-193]
8.70 to 9.15

----------
Molecular target: Human ACC2 (Homo sapiens)
Sequence (O00763 whole entry): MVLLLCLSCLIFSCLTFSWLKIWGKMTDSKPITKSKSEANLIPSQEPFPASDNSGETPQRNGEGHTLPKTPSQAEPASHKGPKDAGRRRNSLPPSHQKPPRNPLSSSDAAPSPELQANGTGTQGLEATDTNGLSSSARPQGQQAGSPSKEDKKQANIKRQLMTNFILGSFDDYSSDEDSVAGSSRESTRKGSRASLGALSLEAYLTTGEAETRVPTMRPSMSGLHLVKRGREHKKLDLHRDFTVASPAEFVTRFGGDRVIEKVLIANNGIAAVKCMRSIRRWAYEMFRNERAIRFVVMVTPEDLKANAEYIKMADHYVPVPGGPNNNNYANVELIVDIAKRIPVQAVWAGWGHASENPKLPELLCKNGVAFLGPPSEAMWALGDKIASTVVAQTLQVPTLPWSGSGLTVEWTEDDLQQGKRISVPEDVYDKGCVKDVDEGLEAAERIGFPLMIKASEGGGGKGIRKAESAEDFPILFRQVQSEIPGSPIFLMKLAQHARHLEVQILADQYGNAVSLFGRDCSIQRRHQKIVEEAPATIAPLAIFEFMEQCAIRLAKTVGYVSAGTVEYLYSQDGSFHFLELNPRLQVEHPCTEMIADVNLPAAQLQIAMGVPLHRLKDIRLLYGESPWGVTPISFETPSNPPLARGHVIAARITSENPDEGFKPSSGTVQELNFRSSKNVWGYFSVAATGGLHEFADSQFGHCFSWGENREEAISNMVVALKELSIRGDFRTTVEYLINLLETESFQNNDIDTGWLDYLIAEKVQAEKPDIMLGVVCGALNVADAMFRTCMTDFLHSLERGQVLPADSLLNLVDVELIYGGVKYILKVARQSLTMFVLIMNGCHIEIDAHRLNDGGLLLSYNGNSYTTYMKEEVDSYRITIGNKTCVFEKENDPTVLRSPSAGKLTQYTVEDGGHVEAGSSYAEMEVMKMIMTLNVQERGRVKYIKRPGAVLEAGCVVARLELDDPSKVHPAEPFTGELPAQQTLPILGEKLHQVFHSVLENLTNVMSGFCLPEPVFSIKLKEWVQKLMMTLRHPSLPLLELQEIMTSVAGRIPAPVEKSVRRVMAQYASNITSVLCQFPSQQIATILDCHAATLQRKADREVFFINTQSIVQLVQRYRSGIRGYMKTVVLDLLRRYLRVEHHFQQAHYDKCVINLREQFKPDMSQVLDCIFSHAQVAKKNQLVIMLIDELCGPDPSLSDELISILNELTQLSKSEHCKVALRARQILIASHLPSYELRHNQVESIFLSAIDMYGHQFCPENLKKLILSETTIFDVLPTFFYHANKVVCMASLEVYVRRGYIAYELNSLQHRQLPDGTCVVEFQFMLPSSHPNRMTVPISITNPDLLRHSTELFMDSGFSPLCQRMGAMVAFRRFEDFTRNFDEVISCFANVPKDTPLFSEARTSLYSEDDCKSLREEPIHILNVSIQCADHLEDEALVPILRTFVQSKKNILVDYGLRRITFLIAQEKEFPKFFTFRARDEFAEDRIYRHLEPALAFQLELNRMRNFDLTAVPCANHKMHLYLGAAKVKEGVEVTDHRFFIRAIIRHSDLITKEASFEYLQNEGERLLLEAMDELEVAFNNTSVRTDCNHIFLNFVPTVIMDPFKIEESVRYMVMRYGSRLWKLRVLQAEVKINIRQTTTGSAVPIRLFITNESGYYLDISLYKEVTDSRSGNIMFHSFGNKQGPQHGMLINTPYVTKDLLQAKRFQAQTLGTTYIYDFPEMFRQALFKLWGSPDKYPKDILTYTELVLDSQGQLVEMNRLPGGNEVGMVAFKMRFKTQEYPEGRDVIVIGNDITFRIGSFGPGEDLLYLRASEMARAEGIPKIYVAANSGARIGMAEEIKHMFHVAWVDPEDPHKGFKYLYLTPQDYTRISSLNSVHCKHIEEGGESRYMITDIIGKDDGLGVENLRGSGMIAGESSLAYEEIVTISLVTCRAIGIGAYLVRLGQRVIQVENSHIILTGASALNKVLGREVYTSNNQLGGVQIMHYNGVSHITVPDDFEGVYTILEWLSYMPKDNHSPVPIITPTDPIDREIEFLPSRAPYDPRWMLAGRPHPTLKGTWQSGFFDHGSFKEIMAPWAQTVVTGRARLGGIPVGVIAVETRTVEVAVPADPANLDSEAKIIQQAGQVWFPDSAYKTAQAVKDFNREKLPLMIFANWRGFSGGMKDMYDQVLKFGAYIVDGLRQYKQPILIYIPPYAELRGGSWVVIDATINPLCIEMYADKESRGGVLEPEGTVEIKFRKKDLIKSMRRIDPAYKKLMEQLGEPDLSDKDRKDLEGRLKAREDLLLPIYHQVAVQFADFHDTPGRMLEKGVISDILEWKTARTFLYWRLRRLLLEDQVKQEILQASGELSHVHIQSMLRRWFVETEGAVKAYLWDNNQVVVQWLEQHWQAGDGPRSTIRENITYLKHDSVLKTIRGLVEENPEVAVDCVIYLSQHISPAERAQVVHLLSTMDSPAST
Overview of recorded IC50 for various compounds

{"Compound": "COc1ccc(F)cc1[C@H](Cn1c(=O)n([C@@H]2CCN(C)C2=O)c(=O)c2c(C)c(-n3nccn3)sc21)OCCC#N [Compound I-109]", "IC50": "2 to 10 nM"}
{"Compound": "COc1ccc(F)cc1[C@H](Cn1c(=O)n([C@@H]2CCN(C)C2=O)c(=O)c2c(C)c(-n3nccn3)sc21)O[C@H]1C[C@H](O)C1 [Compound I-185]", "IC50": "2 to 10 nM"}

Switching to the query record.
Return IC50 measured with Human ACC2 (Homo sapiens) given this compound: COc1ccc(F)cc1[C@H](Cn1c(=O)n([C@@H]2CCN(C)C2=O)c(=O)c2c(C)c(-n3nccn3)sc21)OCCO [Compound I-83]
2 to 10 nM

----------
Data export: pIC50 values recorded with Fungal ACC2 (UniProt Q00955).
pIC50: −log10 of the molar value.

These solved cases illustrate the format of a correct answer.
{"Smiles": "COc1ccccc1C(=O)Cn1c(=O)n([C@H]2CCN(C)C2=O)c(=O)c2c(C)c(-n3nccn3)sc21", "pIC50": "6.00 to 7.00"}
{"Smiles": "COCCO[C@@H](Cn1c(=O)n([C@H]2CCCN(C(C)C)C2=O)c(=O)c2c(C)c(-n3nccn3)sc21)c1cc(F)ccc1OC", "pIC50": "8.00 to 8.70"}

Switching to the query record.
// pIC50 lookup, key: "COc1ccc(F)cc1[C@H](Cn1c(=O)n([C@@H]2CCN(C)C2=O)c(=O)c2c(C)c(-n3nccn3)sc21)OCCO"
8.70 to 9.15

----------
Overview of recorded MIC for various compounds
Tested on: Aspergillus fumigatus
Experiment: In vitro antifungal assay (broth microdilution, Micromyx), A. fumigatus
Type: cell-based
Details: strain 5280 ATCC MYA-3626, 35° C., 48 hr, read-out: MIC, A. fumigatus 5280 ATCC MYA-3626

These solved cases illustrate the format of a correct answer.
{"Compound": "COc1ccc(F)cc1[C@H](Cn1c(=O)n([C@@H]2CCNC2=O)c(=O)c2c(C)c(-n3nccn3)sc21)OC1CCOCC1", "System under test": "Aspergillus fumigatus", "Value type": "MIC", "Result": "1.1 to 2 µg/mL"}
{"Compound": "COc1ccc(F)cc1[C@H](Cn1c(=O)n([C@H]2CCCN(C)C2=O)c(=O)c2c(C)c(-n3nccn3)sc21)OC1CCOCC1", "System under test": "Aspergillus fumigatus", "Value type": "MIC", "Result": "1.1 to 2 µg/mL"}
{"Compound": "CCN1CCC(n2c(=O)c3c(C)c(-n4nccn4)sc3n(C[C@H](OC3CCOCC3)c3cc(F)ccc3OC)c2=O)C1=O (stereo partly drawn)", "System under test": "Aspergillus fumigatus", "Value type": "MIC", "Result": "0.25 to 1 µg/mL"}

// MIC lookup, key: "COc1ccc(F)cc1[C@H](Cn1c(=O)n([C@H]2CCCNC2=O)c(=O)c2c(C)c(-n3nccn3)sc21)OC1CCOCC1"
1.1 to 2 µg/mL

// MIC lookup, key: "COc1ccc(F)cc1[C@H](Cn1c(=O)n([C@@H]2CCN(C)C2=O)c(=O)c2c(C)c(-n3nccn3)sc21)OC1CCOCC1"
0.25 to 1 µg/mL

// MIC lookup, key: COc1ccc(F)cc1[C@H](Cn1c(=O)n(C2CCN(C(C)C)C2=O)c(=O)c2c(C)c(-n3nccn3)sc21)OC1CCOCC1 (stereo partly drawn)
0.25 to 1 µg/mL
